Target: SMARCA2 (Homo sapiens)
Construct: such that the cells express both SMARCA2 and SMARCA4; endogenous in cells; host or cells: A549 (NSCLC) cells with SMARCA4 mutation corrected to wild type
Assay: Protein degradation assay in A549 cells, SMARCA2 levels by WES capillary electrophoresis
Format: cell-based
Details: A549 (NSCLC) cells with SMARCA4 mutation corrected to wild type; 18 h incubation; maximal amount of degraded protein relative to initial levels
Consider the following molecules; for each one, report its Dmax.
Numeric answer only, unit % assumed.

Notebook: Cc1ncsc1-c1ccc(CNC(=O)[C@@H]2C[C@@H](O)CN2C(=O)[C@@H](NC(=O)C2(F)CC2)C(C)(C)C)c(OCCCOc2ccc(CN3CCN(c4cc(-c5ccccc5O)nnc4N)CC3)cc2)c1 [Compound I-11] , Dmax read as 99

Notebook: Cc1ncsc1-c1ccc(CNC(=O)[C@@H]2C[C@@H](O)CN2C(=O)[C@@H](NC(=O)C2(F)CC2)C(C)(C)C)c(OCCCCCCCN2CCN(c3cc(-c4ccccc4O)nnc3N)CC2)c1 [Compound I-1] , Dmax read as 45

Notebook: Cc1ncsc1-c1ccc(CNC(=O)[C@@H]2C[C@@H](O)CN2C(=O)[C@@H](NC(=O)C2(F)CC2)C(C)(C)C)c(OCCCc2ccc(CN3CCN(c4cc(-c5ccccc5O)nnc4N)CC3)cc2)c1 [Compound I-14] , Dmax read as 90

Notebook: Cc1ncsc1-c1ccc(CNC(=O)[C@@H]2C[C@@H](O)CN2C(=O)[C@@H](NC(=O)C2(F)CC2)C(C)(C)C)c(OCCCCOc2ccc(CN3CCN(c4cc(-c5ccccc5O)nnc4N)CC3)cc2)c1 [Compound I-9] , Dmax read as 85

Notebook: Cc1ncsc1-c1ccc(CNC(=O)[C@@H]2C[C@@H](O)CN2C(=O)[C@@H](NC(=O)C2(F)CC2)C(C)(C)C)c(OCc2ccc(CN3CCN(c4cc(-c5ccccc5O)nnc4N)CC3)cc2)c1 [Compound I-8] , Dmax read as 88

Notebook: Cc1ncsc1-c1ccc(CNC(=O)[C@@H]2C[C@@H](O)CN2C(=O)[C@@H](NC(=O)C2(F)CC2)C(C)(C)C)c(OCCCCOCCN2CCN(c3cc(-c4ccccc4O)nnc3N)CC2)c1 [Compound I-4] , Dmax read as 70

Notebook: Cc1ncsc1-c1ccc(CNC(=O)[C@@H]2C[C@@H](O)CN2C(=O)[C@@H](NC(=O)C2(F)CC2)C(C)(C)C)c(OCCOCCOCCN2CCN(c3cc(-c4ccccc4O)nnc3N)CC2)c1 [Compound I-5] , Dmax read as 89

Notebook: Cc1ncsc1-c1ccc(CNC(=O)[C@@H]2C[C@@H](O)CN2C(=O)[C@@H](NC(=O)C2(F)CC2)C(C)(C)C)c(OCCOc2ccc(CN3CCN(c4cc(-c5ccccc5O)nnc4N)CC3)cc2)c1 [Compound I-7] , Dmax read as 98

Notebook: Cc1ncsc1-c1ccc(CNC(=O)[C@@H]2C[C@@H](O)CN2C(=O)[C@@H](NC(=O)C2(F)CC2)C(C)(C)C)c(OCCCCCCCOCCN2CCN(c3cc(-c4ccccc4O)nnc3N)CC2)c1 [Compound I-6] , Dmax read as 83

Notebook: Cc1ncsc1-c1ccc(CNC(=O)[C@@H]2C[C@@H](O)CN2C(=O)[C@@H](NC(=O)C2(F)CC2)C(C)(C)C)c(OCCc2ccc(CN3CCN(c4cc(-c5ccccc5O)nnc4N)CC3)cc2)c1 [Compound I-2] , Dmax read as 91

###

Target: SMARCA4 (Homo sapiens, UniProt P51532)
Construct: endogenous in cells; host or cells: A549 (NSCLC) cells with SMARCA4 mutation corrected to wild type
Sequence (P51532 whole entry): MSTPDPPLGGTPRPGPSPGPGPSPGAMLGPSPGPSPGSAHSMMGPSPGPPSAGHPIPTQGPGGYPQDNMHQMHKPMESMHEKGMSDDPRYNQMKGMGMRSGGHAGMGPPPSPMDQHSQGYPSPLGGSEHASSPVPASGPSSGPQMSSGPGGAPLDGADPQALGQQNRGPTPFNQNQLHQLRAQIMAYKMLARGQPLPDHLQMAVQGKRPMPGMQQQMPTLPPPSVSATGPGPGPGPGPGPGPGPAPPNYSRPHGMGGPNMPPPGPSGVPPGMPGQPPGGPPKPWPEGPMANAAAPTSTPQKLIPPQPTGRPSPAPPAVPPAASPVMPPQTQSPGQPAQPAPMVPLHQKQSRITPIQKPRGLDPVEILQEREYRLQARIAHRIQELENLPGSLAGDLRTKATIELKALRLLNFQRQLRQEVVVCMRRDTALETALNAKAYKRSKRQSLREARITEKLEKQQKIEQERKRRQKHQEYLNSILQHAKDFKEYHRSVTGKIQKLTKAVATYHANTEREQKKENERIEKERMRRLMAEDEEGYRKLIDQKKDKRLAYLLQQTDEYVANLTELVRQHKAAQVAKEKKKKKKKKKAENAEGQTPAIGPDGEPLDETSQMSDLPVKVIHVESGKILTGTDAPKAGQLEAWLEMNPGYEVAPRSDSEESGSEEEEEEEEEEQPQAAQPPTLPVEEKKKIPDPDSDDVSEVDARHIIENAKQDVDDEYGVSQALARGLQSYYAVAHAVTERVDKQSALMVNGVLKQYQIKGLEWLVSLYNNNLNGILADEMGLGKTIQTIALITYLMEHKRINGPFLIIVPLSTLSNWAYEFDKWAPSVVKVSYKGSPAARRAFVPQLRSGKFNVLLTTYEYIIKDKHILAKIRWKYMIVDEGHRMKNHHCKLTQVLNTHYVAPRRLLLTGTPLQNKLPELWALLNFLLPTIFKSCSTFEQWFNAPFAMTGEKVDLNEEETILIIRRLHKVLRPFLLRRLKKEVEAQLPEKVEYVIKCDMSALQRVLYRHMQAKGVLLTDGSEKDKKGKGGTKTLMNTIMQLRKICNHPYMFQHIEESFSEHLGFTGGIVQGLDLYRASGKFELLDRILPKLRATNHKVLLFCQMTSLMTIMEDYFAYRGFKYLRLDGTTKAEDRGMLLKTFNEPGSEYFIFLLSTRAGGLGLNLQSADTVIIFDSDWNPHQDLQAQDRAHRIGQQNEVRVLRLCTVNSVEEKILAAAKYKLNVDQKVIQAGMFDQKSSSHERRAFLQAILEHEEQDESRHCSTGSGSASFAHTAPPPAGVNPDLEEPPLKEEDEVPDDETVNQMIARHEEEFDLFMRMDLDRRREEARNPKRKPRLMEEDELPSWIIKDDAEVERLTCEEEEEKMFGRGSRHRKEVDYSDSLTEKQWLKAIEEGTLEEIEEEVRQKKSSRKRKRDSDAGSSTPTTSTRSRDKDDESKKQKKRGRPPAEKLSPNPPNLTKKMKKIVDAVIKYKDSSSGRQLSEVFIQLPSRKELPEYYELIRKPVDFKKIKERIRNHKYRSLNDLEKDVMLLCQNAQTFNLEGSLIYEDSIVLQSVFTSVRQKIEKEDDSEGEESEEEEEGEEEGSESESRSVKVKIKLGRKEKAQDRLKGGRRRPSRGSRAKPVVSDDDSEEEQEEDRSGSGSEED
Test: Protein degradation assay in A549 cells, SMARCA4 levels by WES capillary electrophoresis
Type: cell-based
Conditions: A549 (NSCLC) cells with SMARCA4 mutation corrected to wild type; 18 h incubation; maximal amount of degraded protein relative to initial levels
Recorded metric: Dmax (%)
Numeric answer only, unit % assumed.

Notebook: Cc1ncsc1-c1ccc(CNC(=O)[C@@H]2C[C@@H](O)CN2C(=O)[C@@H](NC(=O)C2(F)CC2)C(C)(C)C)c(OCCc2ccc(CN3CCN(c4cc(-c5ccccc5O)nnc4N)CC3)cc2)c1 , Dmax read as 93

Notebook: Cc1ncsc1-c1ccc(CNC(=O)[C@@H]2C[C@@H](O)CN2C(=O)[C@@H](NC(=O)C2(F)CC2)C(C)(C)C)c(OCCc2ccc(C(=O)N3CCN(c4cc(-c5ccccc5O)nnc4N)CC3)cc2)c1 , Dmax read as 81

Notebook: Cc1ncsc1-c1ccc(CNC(=O)[C@@H]2C[C@@H](O)CN2C(=O)[C@@H](NC(=O)C2(F)CC2)C(C)(C)C)c(OCCCOc2ccc(CN3CCN(c4cc(-c5ccccc5O)nnc4N)CC3)cc2)c1 , Dmax read as 100

Notebook: Cc1ncsc1-c1ccc(CNC(=O)[C@@H]2C[C@@H](O)CN2C(=O)[C@@H](NC(=O)C2(F)CC2)C(C)(C)C)c(OCCOc2ccc(CN3CCN(c4cc(-c5ccccc5O)nnc4N)CC3)cc2)c1 , Dmax read as 97

###

Molecular target: SMARCA4 (Homo sapiens, UniProt P51532)
Construct: endogenous in cells; host or cells: A549 (NSCLC) cells with SMARCA4 mutation corrected to wild type
Experiment: Protein degradation assay in A549 cells, SMARCA4 levels by WES capillary electrophoresis
Format: cell-based
Settings: A549 (NSCLC) cells with SMARCA4 mutation corrected to wild type; 18 h incubation; maximal amount of degraded protein relative to initial levels
Procedure: For the protein degradation assay, A549 (NSCLC) cells are used in which the inactivating SMARCA4 mutation has been corrected to wild type, such that the cells express both SMARCA2 and SMARCA4. […] SMARCA2 levels are determined on a WES capillary electrophoresis instrument (Proteinsimple) using rabbit anti-SMARCA2 antibody (1:25, Sigma #HPA029981), SMARCA4 antibody (CellSignaling #49360, 1:25), PBRM1 antibody (Bethyl #A301-591A-M, 1:40) and anti-GAPDH antibody (1:100, Abcam #ab9485) for normalization. […]
Recorded metric: Dmax (%)
Numeric answer only, unit % assumed.

Notebook: Cc1ncsc1-c1ccc(CNC(=O)[C@@H]2C[C@@H](O)CN2C(=O)[C@@H](NC(=O)C2(F)CC2)C(C)(C)C)c(OCCc2cccc(CN3CCN(c4cc(-c5ccccc5O)nnc4N)CC3)c2)c1 , Dmax read as 97

Notebook: Cc1ncsc1-c1ccc(CNC(=O)[C@@H]2C[C@@H](O)CN2C(=O)[C@@H](NC(=O)C2(F)CC2)C(C)(C)C)c(OCCCCCCCOCCN2CCN(c3cc(-c4ccccc4O)nnc3N)CC2)c1 , Dmax read as 89

Notebook: Cc1ncsc1-c1ccc(CNC(=O)[C@@H]2C[C@@H](O)CN2C(=O)[C@@H](NC(=O)C2(F)CC2)C(C)(C)C)c(OCCc2ccc(OCCN3CCN(c4cc(-c5ccccc5O)nnc4N)CC3)cc2)c1 , Dmax read as 99

Notebook: Cc1ncsc1-c1ccc(CNC(=O)[C@@H]2C[C@@H](O)CN2C(=O)[C@@H](NC(=O)C2(F)CC2)C(C)(C)C)c(OCCCc2ccc(CN3CCN(c4cc(-c5ccccc5O)nnc4N)CC3)cc2)c1 , Dmax read as 92

Notebook: Cc1ncsc1-c1ccc(CNC(=O)[C@@H]2C[C@@H](O)CN2C(=O)[C@@H](NC(=O)C2(F)CC2)C(C)(C)C)c(OCCCCCCCN2CCN(c3cc(-c4ccccc4O)nnc3N)CC2)c1 , Dmax read as 70

Notebook: Cc1ncsc1-c1ccc(CNC(=O)[C@@H]2C[C@@H](O)CN2C(=O)[C@@H](NC(=O)C2(F)CC2)C(C)(C)C)c(OCCOCCOCCN2CCN(c3cc(-c4ccccc4O)nnc3N)CC2)c1 , Dmax read as 84

Notebook: Cc1ncsc1-c1ccc(CNC(=O)[C@@H]2C[C@@H](O)CN2C(=O)[C@@H](NC(=O)C2(F)CC2)C(C)(C)C)c(OCCCCOc2ccc(CN3CCN(c4cc(-c5ccccc5O)nnc4N)CC3)cc2)c1 , Dmax read as 83

Notebook: Cc1ncsc1-c1ccc(CNC(=O)[C@@H]2C[C@@H](O)CN2C(=O)[C@@H](NC(=O)C2(F)CC2)C(C)(C)C)c(OCCCCOCCN2CCN(c3cc(-c4ccccc4O)nnc3N)CC2)c1 , Dmax read as 87

Notebook: Cc1ncsc1-c1ccc(CNC(=O)[C@@H]2C[C@@H](O)CN2C(=O)[C@@H](NC(=O)C2(F)CC2)C(C)(C)C)c(OCCCOCCN2CCN(c3cc(-c4ccccc4O)nnc3N)CC2)c1 , Dmax read as 100

Notebook: Cc1ncsc1-c1ccc(CNC(=O)[C@@H]2C[C@@H](O)CN2C(=O)[C@@H](NC(=O)C2(F)CC2)C(C)(C)C)c(OCc2ccc(CN3CCN(c4cc(-c5ccccc5O)nnc4N)CC3)cc2)c1 , Dmax read as 59

###

Molecular target: SMARCA2 (Homo sapiens, UniProt P51531)
Construct: such that the cells express both SMARCA2 and SMARCA4; endogenous in cells; host or cells: A549 (NSCLC) cells with SMARCA4 mutation corrected to wild type
Sequence (P51531 whole entry): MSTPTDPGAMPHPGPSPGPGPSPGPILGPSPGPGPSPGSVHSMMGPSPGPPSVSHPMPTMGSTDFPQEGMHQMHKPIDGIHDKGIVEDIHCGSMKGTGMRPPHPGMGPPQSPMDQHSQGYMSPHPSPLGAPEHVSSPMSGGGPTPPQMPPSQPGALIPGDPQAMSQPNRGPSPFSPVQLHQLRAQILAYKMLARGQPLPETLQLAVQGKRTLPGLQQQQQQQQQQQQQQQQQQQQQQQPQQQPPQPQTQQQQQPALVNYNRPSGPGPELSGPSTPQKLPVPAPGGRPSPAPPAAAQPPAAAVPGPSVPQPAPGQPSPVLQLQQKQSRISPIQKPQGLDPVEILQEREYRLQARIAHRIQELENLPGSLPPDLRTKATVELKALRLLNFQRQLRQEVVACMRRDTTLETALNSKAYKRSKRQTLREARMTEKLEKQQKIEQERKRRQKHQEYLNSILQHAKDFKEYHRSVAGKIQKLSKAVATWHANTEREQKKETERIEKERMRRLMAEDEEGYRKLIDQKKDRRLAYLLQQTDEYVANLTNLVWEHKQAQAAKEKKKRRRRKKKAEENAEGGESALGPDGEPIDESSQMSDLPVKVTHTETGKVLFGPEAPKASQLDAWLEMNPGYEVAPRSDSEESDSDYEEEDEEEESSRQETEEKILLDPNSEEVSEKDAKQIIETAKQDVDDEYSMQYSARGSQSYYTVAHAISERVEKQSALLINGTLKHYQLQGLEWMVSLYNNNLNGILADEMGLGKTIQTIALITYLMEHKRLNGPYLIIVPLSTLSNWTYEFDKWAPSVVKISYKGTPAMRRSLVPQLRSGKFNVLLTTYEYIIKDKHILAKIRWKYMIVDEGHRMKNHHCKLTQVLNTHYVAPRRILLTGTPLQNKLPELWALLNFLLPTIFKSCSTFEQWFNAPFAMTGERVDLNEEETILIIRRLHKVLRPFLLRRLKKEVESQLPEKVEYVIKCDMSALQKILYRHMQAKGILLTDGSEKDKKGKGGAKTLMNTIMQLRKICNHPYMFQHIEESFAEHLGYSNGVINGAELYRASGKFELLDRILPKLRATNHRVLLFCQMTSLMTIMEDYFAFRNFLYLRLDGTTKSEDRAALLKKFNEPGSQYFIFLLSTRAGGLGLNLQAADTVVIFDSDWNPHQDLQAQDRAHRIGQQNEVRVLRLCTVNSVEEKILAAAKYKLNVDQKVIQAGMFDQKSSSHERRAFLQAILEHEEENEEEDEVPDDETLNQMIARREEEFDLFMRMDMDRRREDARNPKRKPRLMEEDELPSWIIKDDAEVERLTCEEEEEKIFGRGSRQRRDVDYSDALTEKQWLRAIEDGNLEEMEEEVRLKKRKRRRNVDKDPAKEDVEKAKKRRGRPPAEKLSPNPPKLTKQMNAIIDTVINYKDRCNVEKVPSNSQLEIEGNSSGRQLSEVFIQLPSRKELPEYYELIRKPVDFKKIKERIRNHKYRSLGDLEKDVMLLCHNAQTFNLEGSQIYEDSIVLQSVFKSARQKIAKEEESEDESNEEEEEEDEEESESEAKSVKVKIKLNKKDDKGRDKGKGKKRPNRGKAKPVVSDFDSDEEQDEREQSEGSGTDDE
Test: Protein degradation assay in A549 cells, SMARCA2 levels by WES capillary electrophoresis
Format: cell-based
Settings: A549 (NSCLC) cells with SMARCA4 mutation corrected to wild type; 18 h incubation; concentration at which half maximal degradation is achieved; normalised to GAPDH
Consider the following compounds; for each one, report its DC50.
Numeric answer only, unit nM assumed.

Notebook: Cc1ncsc1-c1ccc(CNC(=O)[C@@H]2C[C@@H](O)CN2C(=O)[C@@H](NC(=O)C2(F)CC2)C(C)(C)C)c(OCCc2cccc(CN3CCN(c4cc(-c5ccccc5O)nnc4N)CC3)c2)c1 , DC50 read as 189

Notebook: Cc1ncsc1-c1ccc(CNC(=O)[C@@H]2C[C@@H](O)CN2C(=O)[C@@H](NC(=O)C2(F)CC2)C(C)(C)C)c(OCCc2ccc(C(=O)N3CCN(c4cc(-c5ccccc5O)nnc4N)CC3)cc2)c1 , DC50 read as 525

Notebook: Cc1ncsc1-c1ccc(CNC(=O)[C@@H]2C[C@@H](O)CN2C(=O)[C@@H](NC(=O)C2(F)CC2)C(C)(C)C)c(OCCOc2ccc(CN3CCN(c4cc(-c5ccccc5O)nnc4N)CC3)cc2)c1 , DC50 read as 12

Notebook: Cc1ncsc1-c1ccc(CNC(=O)[C@@H]2C[C@@H](O)CN2C(=O)[C@@H](NC(=O)C2(F)CC2)C(C)(C)C)c(OCCc2ccc(OCCN3CCN(c4cc(-c5ccccc5O)nnc4N)CC3)cc2)c1 , DC50 read as 41

Notebook: Cc1ncsc1-c1ccc(CNC(=O)[C@@H]2C[C@@H](O)CN2C(=O)[C@@H](NC(=O)C2(F)CC2)C(C)(C)C)c(OCCCOc2ccc(CN3CCN(c4cc(-c5ccccc5O)nnc4N)CC3)cc2)c1 , DC50 read as 26

Notebook: Cc1ncsc1-c1ccc(CNC(=O)[C@@H]2C[C@@H](O)CN2C(=O)[C@@H](NC(=O)C2(F)CC2)C(C)(C)C)c(OCCCCOc2ccc(CN3CCN(c4cc(-c5ccccc5O)nnc4N)CC3)cc2)c1 , DC50 read as 236

Notebook: Cc1ncsc1-c1ccc(CNC(=O)[C@@H]2C[C@@H](O)CN2C(=O)[C@@H](NC(=O)C2(F)CC2)C(C)(C)C)c(OCCCCCCCOCCN2CCN(c3cc(-c4ccccc4O)nnc3N)CC2)c1 , DC50 read as 172

Notebook: Cc1ncsc1-c1ccc(CNC(=O)[C@@H]2C[C@@H](O)CN2C(=O)[C@@H](NC(=O)C2(F)CC2)C(C)(C)C)c(OCCCCCCCN2CCN(c3cc(-c4ccccc4O)nnc3N)CC2)c1 , DC50 read as 450
